Items are presented alongside their recorded pKd.
# System Tested: T1, EsCas13d, nuclease-dead (Eubacterium siraeum, UniProt B0MS50, R295A;H300A;R849A;H854A)
# T1 sequence: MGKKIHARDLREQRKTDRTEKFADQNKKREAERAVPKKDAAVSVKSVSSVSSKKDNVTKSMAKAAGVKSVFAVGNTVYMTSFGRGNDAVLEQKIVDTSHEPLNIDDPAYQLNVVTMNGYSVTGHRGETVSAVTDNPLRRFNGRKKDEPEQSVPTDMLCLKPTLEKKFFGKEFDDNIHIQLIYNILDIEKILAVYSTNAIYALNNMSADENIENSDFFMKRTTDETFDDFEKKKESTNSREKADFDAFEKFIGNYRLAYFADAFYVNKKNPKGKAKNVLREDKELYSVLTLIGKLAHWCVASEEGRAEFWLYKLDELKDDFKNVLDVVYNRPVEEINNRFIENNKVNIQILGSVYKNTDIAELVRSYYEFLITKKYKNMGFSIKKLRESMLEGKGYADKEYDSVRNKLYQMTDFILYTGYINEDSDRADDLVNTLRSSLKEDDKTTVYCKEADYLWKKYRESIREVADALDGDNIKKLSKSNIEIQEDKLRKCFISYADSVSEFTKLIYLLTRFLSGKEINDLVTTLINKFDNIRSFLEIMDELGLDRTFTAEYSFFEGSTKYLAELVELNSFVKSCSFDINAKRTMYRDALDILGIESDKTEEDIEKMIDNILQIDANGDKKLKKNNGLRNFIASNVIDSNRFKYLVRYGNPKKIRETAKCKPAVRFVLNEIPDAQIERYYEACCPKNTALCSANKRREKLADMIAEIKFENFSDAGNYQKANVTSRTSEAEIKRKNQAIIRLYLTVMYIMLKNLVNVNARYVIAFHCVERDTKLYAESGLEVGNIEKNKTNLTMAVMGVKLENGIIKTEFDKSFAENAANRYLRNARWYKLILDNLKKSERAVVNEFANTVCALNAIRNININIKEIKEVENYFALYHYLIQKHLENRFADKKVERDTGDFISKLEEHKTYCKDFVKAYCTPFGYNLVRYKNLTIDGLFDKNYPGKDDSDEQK
# Experimental Details: crRNA (strand 1, pre-loaded); Mg2+; 40 mM Tris-HCl pH 7.5, 150 mM NaCl, 6 mM MgCl2, 1 mM DTT, 0.1% Tween-20, 0.2 mg/ml BSA; 25 C; 10 min per concentration, then washed
# Experimental Setup: tags: His6-TwinStrep-SUMO cleaved; N-terminal SNAP kept (SNAP-Surface 488); label: 3' end held by stalled T7 RNA polymerase
In plain terms, pKd is the concentration in mol/L turned into minus its base-10 logarithm.

Example binders with recorded pKd:
{"Binder": "target 1 MT 5'PFS GCC 3'PFS AUA (mixed) RNA 1: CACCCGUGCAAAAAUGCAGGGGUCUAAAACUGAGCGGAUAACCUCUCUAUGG RNA 2: GGGAAUGGAUCCACAUCUACGAAUUCGCCCCAUAGAGAGGUUAUCCGCUCAAUAAGAUCGGAAGAGCACACGU", "pKd": 7.86}
{"Binder": "target 2 MT 5'PFS UGC 3'PFS CCG (mixed) RNA 1: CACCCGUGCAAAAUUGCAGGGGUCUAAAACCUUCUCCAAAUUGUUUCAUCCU RNA 2: GGGAAUGGAUCCACAUCUACGAAUUCUGCAGGAUGAAACAAUUUGGAGAAGCCGAGAUCGGAAGAGCACACGU", "pKd": 7.21}
{"Binder": "target 2 MT 5'PFS GAA 3'PFS UAU (mixed) RNA 1: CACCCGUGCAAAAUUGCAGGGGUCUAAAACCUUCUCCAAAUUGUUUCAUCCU RNA 2: GGGAAUGGAUCCACAUCUACGAAUUCGAAAGGAUGAAACAAUUUGGAGAAGUAUAGAUCGGAAGAGCACACGU", "pKd": 8.11}
{"Binder": "target 2 MT 5'PFS UAU 3'PFS UGA (mixed) RNA 1: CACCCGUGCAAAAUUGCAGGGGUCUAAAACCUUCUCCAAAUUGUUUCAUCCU RNA 2: GGGAAUGGAUCCACAUCUACGAAUUCUAUAGGAUGAAACAAUUUGGAGAAGUGAAGAUCGGAAGAGCACACGU", "pKd": 7.43}
{"Binder": "target 1 MT 5'PFS UCA 3'PFS CGU (mixed) RNA 1: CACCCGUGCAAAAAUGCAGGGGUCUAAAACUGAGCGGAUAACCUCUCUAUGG RNA 2: GGGAAUGGAUCCACAUCUACGAAUUCUCACCAUAGAGAGGUUAUCCGCUCACGUAGAUCGGAAGAGCACACGU", "pKd": 7.73}
{"Binder": "target 3 G4A,U7A (mixed) RNA 1: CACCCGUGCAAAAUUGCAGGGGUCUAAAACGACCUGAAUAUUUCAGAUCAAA RNA 2: GGGAAUGGAUCCACAUCUACGAAUUCGUUUUUGAUCUGAAAUAUACAAGUCUGCAGAUCGGAAGAGCACACGU", "pKd": 7.67}

# input Requested field: pKd. Item: target 3 insG 3' of 2 (mixed) RNA 1: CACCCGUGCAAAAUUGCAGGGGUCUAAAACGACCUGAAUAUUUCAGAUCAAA RNA 2: GGGAAUGGAUCCACAUCUACGAAUUCGUUUUUGAUCUGAAAUAUUCAGGUGCUGCAGAUCGGAAGAGCACACGU
# output 7.43

# input Look up pKd: target 1 MT 5'PFS UUA 3'PFS CAG (mixed) RNA 1: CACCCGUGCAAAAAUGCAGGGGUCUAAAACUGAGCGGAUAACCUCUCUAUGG RNA 2: GGGAAUGGAUCCACAUCUACGAAUUCUUACCAUAGAGAGGUUAUCCGCUCACAGAGAUCGGAAGAGCACACGU
# output 7.31

Sourced from paper PMC10786891
